- System: normal brain
- Assay setup: i.v. equimolar mix, 2 h circulation
Quick rule: Representation of phage in control brain tissue (fold G7 control phage), Norm. brain of at least 0.1 fold means true (1), below that means false (0).

# Substance, Assigned label
records = [
    ("AGRGRLVR [PL3]", "true (1)"),
    ("CAGRGRLVRC", "false (0)"),
    ("RGRLVRAK", "true (1)"),
    ("GGGGGGG [reference compound]", "true (1)"),
    ("AGRGRLVRAKLAAALE", "false (0)"),
]

Consider the additional substance presented here.
Kindly determine if Representation of phage in control brain tissue (fold G7 control phage), Norm. brain recorded for AGVGRLRRAKLAAALE is above or exactly 0.1 fold. true (1)

---

- Test system: P13 tumor
- Assay setup: i.v. equimolar mix, 2 h circulation
Rule: Representation of phage in tumors (fold G7 control phage), P13 below 0.4 fold gives label 1, anything at or above gives label 0.

# Substance, System name, Assigned label
records = [
    ("AGRGRLVRAKLAAALE", "P13 tumor", "label 1"),
    ("VGRVRFSRKLAAALE", "P13 tumor", "label 0"),
    ("GGGGGGG [reference compound]", "P13 tumor", "label 0"),
    ("AGVGRLRRAKLAAALE", "P13 tumor", "label 0"),
    ("RGRLVRAK", "P13 tumor", "label 1"),
    ("AVRGRLRVAKLAAALE", "P13 tumor", "label 0"),
    ("GRLTRVR", "P13 tumor", "label 0"),
    ("CSRRGILRAKPAAALE", "P13 tumor", "label 0"),
]

Find out if reported Representation of phage in tumors (fold G7 control phage), P13 for AGRGRLVR [PL3] is less than 0.4 fold label 0

---

- System: P3 stem cell-like tumor
- Assay setup: i.v. equimolar mix, 2 h circulation
Quick rule: Representation of phage in tumors (fold G7 control phage), P3 SCL of at least 0.4 fold means label 1, below that means label 0.

# Substance, System name, Assigned label
data = [
    ("CSRRGILRAKPAAALE", "P3 stem cell-like tumor", "label 1"),
    ("AGRGRLVR [PL3]", "P3 stem cell-like tumor", "label 1"),
    ("RRLVRVA", "P3 stem cell-like tumor", "label 0"),
    ("GRLTRVR", "P3 stem cell-like tumor", "label 1"),
    ("AGVGRLRRAKLAAALE", "P3 stem cell-like tumor", "label 1"),
    ("RGRLVRA", "P3 stem cell-like tumor", "label 0"),
]

Kindly determine if Representation of phage in tumors (fold G7 control phage), P3 SCL recorded for RGRLVRAK is above or exactly 0.4 fold. label 0

Kindly determine if Representation of phage in tumors (fold G7 control phage), P3 SCL recorded for AVRGRLRVAKLAAALE is above or exactly 0.4 fold. label 1

Kindly determine if Representation of phage in tumors (fold G7 control phage), P3 SCL recorded for CAGRGRLVRC is above or exactly 0.4 fold. label 0

Kindly determine if Representation of phage in tumors (fold G7 control phage), P3 SCL recorded for GGGGGGG [reference compound] is above or exactly 0.4 fold. label 1

---

- Tested on: normal brain
- Assay setup: i.v. equimolar mix, 2 h circulation
For each entry below, report its Representation of phage in control brain tissue (fold G7 control phage), Norm. brain value.
Give bare numbers, in fold.

Solved entries (count: 6):
# Substance, System name, Assay result
rows = [
    ("VGRVRFSRKLAAALE", "normal brain", 0.1),
    ("RGRLVRA", "normal brain", 0.1),
    ("AVRGRLRVAKLAAALE", "normal brain", 0.1),
    ("CRGVLRRAKLAAALE", "normal brain", 0.1),
    ("GRLTRVR", "normal brain", 0.1),
    ("RRLVRVA", "normal brain", 0.1),
]

# evaluate next
Hello, I am looking for reported Representation of phage in control brain tissue (fold G7 control phage), Norm. brain with normal brain for CSRRGILRAKPAAALE . Could you help? 0.1

---

For each entry below, report its Representation of phage in tumors (fold G7 control phage), P13 value.
- Tested on: P13 tumor
- Assay setup: i.v. equimolar mix, 2 h circulation
Numbers only, in fold.

Solved entries (count: 3):
# Substance, Assay result
measured = [
    ("RGRLVRA", 0.4),
    ("CRGVLRRAKLAAALE", 0.4),
    ("CAGRGRLVRC", 0.4),
]

# evaluate next
I have this substance here, RRLVRVA , and I need its recorded Representation of phage in tumors (fold G7 control phage), P13. 0.4

---

- Test system: P3 stem cell-like tumor
- Assay setup: i.v. equimolar mix, 2 h circulation
For each entry below, report its Representation of phage in tumors (fold G7 control phage), P3 SCL value.
Give bare numbers, in fold.

# Residue string, Assay result
measured = [
    ("AGRGRLVRAKLAAALE", 0.4),
    ("CRGVLRRAKLAAALE", 0.4),
]

I have this sequence here, VGRVRFSRKLAAALE , and I need its recorded Representation of phage in tumors (fold G7 control phage), P3 SCL. 0.4
